# measurement.target: Glutamate receptor ionotropic, NMDA 2B (Rattus norvegicus)
# test.protocol: Positive allosteric modulation of GluN2B receptor in rat spinal cord neurons assessed as increase in glycine-induced channel current by two electrode voltage clamp method
measure.name: EC50
The reply must contain the numeric value and, after it, the unit.

For this molecule ( NCCCNCCCCNCCCN [SPERMINE] ), measured EC50 is 81 µM

###

# measurement.target: Glutamate receptor ionotropic, NMDA 2D (Homo sapiens, UniProt O15399+Q05586)
# Sequence (O15399 whole entry, the tested form may be a part, one chain of several): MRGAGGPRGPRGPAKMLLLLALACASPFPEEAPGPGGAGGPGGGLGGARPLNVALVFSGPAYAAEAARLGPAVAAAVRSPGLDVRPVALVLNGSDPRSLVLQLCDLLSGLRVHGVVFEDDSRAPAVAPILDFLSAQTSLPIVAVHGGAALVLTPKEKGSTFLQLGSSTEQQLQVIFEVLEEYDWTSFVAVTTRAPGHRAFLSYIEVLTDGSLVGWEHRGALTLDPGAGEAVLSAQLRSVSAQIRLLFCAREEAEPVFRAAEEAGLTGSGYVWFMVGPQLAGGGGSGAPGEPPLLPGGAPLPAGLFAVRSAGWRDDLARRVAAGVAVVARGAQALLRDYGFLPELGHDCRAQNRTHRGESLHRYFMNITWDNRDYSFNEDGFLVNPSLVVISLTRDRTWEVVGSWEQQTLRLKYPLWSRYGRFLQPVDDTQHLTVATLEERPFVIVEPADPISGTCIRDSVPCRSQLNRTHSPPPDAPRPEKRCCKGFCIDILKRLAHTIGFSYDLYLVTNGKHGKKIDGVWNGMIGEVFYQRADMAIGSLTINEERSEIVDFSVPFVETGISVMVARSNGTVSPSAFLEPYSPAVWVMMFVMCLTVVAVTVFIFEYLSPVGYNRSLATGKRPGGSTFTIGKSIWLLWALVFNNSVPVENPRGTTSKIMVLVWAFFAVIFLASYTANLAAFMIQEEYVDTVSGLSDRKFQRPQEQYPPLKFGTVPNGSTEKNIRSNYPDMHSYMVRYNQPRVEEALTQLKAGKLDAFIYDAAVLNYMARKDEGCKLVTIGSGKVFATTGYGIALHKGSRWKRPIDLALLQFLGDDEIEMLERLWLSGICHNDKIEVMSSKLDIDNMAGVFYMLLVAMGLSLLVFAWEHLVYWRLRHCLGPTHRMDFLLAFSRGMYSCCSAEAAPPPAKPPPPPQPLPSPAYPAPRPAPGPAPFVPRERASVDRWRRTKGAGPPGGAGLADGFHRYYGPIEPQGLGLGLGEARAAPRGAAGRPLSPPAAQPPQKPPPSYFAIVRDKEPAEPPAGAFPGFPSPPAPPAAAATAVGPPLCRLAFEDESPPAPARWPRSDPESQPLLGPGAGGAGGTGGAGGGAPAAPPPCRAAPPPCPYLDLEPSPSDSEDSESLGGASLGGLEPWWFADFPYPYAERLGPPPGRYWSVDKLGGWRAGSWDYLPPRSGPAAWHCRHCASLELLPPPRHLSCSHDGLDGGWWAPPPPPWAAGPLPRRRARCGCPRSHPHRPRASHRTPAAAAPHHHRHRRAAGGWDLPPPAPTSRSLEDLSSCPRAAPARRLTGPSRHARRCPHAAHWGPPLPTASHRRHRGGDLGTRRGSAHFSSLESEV
# test.protocol: Positive allosteric modulation of EGFP-fused human GluN2D receptor expressed in HEK293T cells assessed as increase in glycine-induced channel current by two electrode voltage clamp method
# Assay type: cell-based
measure.name: EC50 (µM)
Respond numerically; units are µM and should not be typed.

// field: EC50; key: CC(=O)[C@H]1CC[C@H]2[C@@H]3CC=C4C[C@@H](OS(=O)(=O)O)CC[C@]4(C)[C@H]3CC[C@]12C ; value = 78

###

# measurement.target: Glutamate NMDA receptor; GRIN1/GRIN2B (Homo sapiens, UniProt Q05586+Q13224)
# test.protocol: Negative allosteric modulation of GluN1a/GluN2B receptor (unknown origin) expressed in xenopus laevis oocytes assessed as reduction in glutamate/glycine-induced channel current at -60 mV holding potential by two electrode voltage clamp method
measure.name: IC50 (µM)
Write the answer as a number in µM, unit excluded.

Item O=C(O)c1cc2cc(Br)ccc2oc1=O was tested on Glutamate NMDA receptor; GRIN1/GRIN2B (Homo sapiens, UniProt Q05586+Q13224); the reported IC50 is 90

###

# measurement.target: Glutamate receptor ionotropic, NMDA 2B (Homo sapiens, UniProt Q05586+Q13224)
# Sequence (Q13224 whole entry, one chain of several): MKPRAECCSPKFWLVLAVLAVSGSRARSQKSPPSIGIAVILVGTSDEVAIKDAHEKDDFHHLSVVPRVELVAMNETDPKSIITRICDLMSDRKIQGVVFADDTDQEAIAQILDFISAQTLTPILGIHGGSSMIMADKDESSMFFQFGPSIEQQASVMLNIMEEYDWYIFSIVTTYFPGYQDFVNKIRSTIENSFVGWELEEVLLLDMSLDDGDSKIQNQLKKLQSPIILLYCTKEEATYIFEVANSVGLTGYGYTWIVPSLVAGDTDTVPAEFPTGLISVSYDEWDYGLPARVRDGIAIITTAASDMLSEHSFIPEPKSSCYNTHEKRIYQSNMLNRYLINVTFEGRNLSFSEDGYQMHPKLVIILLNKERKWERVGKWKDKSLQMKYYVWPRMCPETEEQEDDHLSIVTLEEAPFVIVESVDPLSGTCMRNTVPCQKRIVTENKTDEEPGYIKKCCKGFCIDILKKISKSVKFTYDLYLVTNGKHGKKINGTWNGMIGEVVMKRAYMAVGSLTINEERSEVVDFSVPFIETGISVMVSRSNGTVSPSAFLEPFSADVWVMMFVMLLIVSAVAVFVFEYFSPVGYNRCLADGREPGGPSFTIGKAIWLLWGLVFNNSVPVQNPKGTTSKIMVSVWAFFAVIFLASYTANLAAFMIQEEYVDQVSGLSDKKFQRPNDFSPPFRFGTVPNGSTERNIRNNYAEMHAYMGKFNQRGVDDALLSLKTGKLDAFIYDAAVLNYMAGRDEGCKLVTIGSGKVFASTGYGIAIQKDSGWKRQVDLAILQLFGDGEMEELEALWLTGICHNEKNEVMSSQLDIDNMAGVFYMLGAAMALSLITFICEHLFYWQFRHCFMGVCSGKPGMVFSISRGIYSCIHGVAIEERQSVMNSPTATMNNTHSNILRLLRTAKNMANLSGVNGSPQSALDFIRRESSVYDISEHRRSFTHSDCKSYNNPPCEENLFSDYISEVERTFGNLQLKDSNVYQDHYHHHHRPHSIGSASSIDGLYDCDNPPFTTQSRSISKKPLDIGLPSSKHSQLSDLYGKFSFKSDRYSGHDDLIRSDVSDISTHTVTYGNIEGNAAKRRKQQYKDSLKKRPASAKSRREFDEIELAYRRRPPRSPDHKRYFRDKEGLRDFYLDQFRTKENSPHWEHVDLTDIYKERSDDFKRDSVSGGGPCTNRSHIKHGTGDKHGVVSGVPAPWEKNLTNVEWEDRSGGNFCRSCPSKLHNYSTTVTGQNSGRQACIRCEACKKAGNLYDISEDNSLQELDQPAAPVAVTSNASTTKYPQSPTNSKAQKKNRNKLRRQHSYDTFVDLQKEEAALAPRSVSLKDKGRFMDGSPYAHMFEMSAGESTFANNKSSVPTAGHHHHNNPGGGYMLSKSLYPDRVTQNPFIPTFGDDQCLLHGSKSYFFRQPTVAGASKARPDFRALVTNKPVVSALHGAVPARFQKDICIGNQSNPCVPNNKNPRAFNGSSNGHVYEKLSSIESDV
# test.protocol: Positive allosteric modulation of GluN2B receptor (unknown origin) expressed in xenopus laevis oocytes assessed as increase in glycine-induced channel current by two electrode voltage clamp method
# Type: cell-based
measure.name: pEC50
Formally, pEC50 is defined as -log10 of the concentration c, with c in mol/L.

Some solved cases for reference:
{"molecule": "NCCCNCCCCNCCCN [SPERMINE]", "meas.value": 3.90}
{"molecule": "CCCc1nc2[nH]c(C)c(NS(=O)(=O)c3ccc(C4CCCCC4)cc3)c(=O)n2n1", "meas.value": 4.80}
{"molecule": "CC(=O)[C@H]1CC[C@H]2[C@@H]3CC=C4C[C@@H](OS(=O)(=O)O)CC[C@]4(C)[C@H]3CC[C@]12C", "meas.value": 4.48}

Now, please, on to the next molecule.
// CC(C)CCCc1ccc2cc(C(=O)O)ccc2c1 : pEC50 value = 4.47

###

# measurement.target: Ionotropic glutamate receptor NMDA 1/2D (Homo sapiens, UniProt O15399+Q05586)
# test.protocol: Negative allosteric modulation of GluN1a/GluN2D receptor (unknown origin) expressed in xenopus laevis oocytes assessed as reduction in glutamate/glycine-induced channel current at -60 mV holding potential by two electrode voltage clamp method
# Type: cell-based
measure.name: pIC50
Quick note: pIC50 means taking -log10 of the concentration in moles per liter.

Readout pIC50 for O=C(O)c1cc2cc(Br)ccc2oc1=O , test system Ionotropic glutamate receptor NMDA 1/2D (Homo sapiens, UniProt O15399+Q05586), was 3.37

###

# measurement.target: Glutamate receptor ionotropic, NMDA 2B (Homo sapiens, UniProt Q05586+Q13224)
# test.protocol: Negative allosteric modulation of GluN2B receptor (unknown origin) expressed in xenopus laevis oocytes assessed as reduction in glycine-induced channel current by two electrode voltage clamp method
measure.name: IC50 (µM)
Answer format: numeric, µM implied, no suffix.

Previously resolved entries follow.
{"compound": "COc1ccc2nc(/C=C/c3cccc([N+](=O)[O-])c3)n(-c3ccc(C(=O)O)cc3)c(=O)c2c1", "measurement.target": "Glutamate receptor ionotropic, NMDA 2B (Homo sapiens, UniProt Q05586+Q13224)", "quantity.unit": "µM", "IC50": 193}
{"compound": "Cc1ccc2[nH]c(=O)c(C3=NN(C(=O)CCC(=O)O)C(c4ccc(Br)cc4)C3)c(-c3ccccc3)c2c1 (stereo not drawn)", "measurement.target": "Glutamate receptor ionotropic, NMDA 2B (Homo sapiens, UniProt Q05586+Q13224)", "quantity.unit": "µM", "IC50": 113}
{"compound": "O=C(O)c1cc2cccc(O)c2cc1O", "measurement.target": "Glutamate receptor ionotropic, NMDA 2B (Homo sapiens, UniProt Q05586+Q13224)", "quantity.unit": "µM", "IC50": 9.4}
{"compound": "O=C(O)c1cc2cc(-c3ccccc3)ccc2c(Br)c1O", "measurement.target": "Glutamate receptor ionotropic, NMDA 2B (Homo sapiens, UniProt Q05586+Q13224)", "quantity.unit": "µM", "IC50": 2.4}
{"compound": "Cc1nccn1Cc1cc(-c2ccc(F)c(C(F)F)c2)cnn1 [EVT-101 FREE BASE]", "measurement.target": "Glutamate receptor ionotropic, NMDA 2B (Homo sapiens, UniProt Q05586+Q13224)", "quantity.unit": "µM", "IC50": 0.012}

Tested on Glutamate receptor ionotropic, NMDA 2B (Homo sapiens, UniProt Q05586+Q13224), the item C[C@@H](CN1CCC(Cc2ccccc2)CC1)[C@@H](O)c1ccc(O)cc1 showed IC50 equal to 0.009

Form field IC50 for item CC(=O)[C@H]1CC[C@H]2[C@@H]3CC[C@@H]4C[C@H](OS(=O)(=O)O)CC[C@]4(C)[C@H]3CC[C@]12C on Glutamate receptor ionotropic, NMDA 2B (Homo sapiens, UniProt Q05586+Q13224): 38

Glutamate receptor ionotropic, NMDA 2B (Homo sapiens, UniProt Q05586+Q13224) data for O=C(O)CCC(=O)N1N=C(c2c(-c3ccccc3)c3cc(Br)ccc3[nH]c2=O)CC1c1ccc(Br)cc1 (stereo not drawn) ; its IC50: 19

###

# measurement.target: Glutamate receptor ionotropic, NMDA 2C (Homo sapiens, UniProt Q05586+Q14957)
# Sequence (Q14957 whole entry, one chain of several): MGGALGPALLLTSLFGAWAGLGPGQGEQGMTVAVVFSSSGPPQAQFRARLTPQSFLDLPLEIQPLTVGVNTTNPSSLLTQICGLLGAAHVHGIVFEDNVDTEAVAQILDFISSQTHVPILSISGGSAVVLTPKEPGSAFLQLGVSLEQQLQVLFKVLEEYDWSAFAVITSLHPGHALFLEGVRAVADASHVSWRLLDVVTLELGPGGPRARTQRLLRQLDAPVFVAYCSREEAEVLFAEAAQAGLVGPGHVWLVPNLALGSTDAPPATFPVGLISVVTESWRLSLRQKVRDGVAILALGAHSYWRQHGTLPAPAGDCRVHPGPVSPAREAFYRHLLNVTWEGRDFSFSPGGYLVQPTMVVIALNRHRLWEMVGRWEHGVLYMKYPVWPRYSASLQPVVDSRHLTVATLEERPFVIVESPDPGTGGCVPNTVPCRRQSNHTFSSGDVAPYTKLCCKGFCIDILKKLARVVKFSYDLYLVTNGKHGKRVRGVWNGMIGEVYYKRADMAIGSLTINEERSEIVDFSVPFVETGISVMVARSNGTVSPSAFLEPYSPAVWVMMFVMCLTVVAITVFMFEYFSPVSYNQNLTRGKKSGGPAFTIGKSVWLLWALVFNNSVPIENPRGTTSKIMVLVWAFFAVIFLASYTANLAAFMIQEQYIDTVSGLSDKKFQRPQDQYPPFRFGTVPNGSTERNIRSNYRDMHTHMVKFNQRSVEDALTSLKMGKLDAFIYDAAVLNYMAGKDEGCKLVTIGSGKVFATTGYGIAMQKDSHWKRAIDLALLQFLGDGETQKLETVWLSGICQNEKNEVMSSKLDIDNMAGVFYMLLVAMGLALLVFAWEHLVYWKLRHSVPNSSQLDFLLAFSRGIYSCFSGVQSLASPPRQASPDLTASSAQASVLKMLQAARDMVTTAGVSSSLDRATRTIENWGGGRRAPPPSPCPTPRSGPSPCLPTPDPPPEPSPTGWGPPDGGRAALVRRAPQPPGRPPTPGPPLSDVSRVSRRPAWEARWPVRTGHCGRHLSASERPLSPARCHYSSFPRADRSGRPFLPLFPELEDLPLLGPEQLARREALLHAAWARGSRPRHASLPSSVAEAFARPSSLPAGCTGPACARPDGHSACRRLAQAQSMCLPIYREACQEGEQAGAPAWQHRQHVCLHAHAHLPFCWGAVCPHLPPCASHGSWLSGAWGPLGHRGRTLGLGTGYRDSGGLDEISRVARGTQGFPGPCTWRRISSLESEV
# test.protocol: Positive allosteric modulation of GluN2C receptor (unknown origin) expressed in xenopus laevis oocytes assessed as increase in glycine-induced channel current by two electrode voltage clamp method
# Format: cell-based
measure.name: EC50 (µM)
Answer format: numeric, µM implied, no suffix.

{"molecule": "COC(=O)c1ccc(C2C(C(C)=O)=C(O)C(=O)N2CCc2c(C)[nH]c3ccccc23)cc1 (centres undefined)", "quantity.unit": "µM", "EC50": 13}
{"molecule": "COc1ccc(OCC2c3cc(OC)c(OC)cc3CCN2C(=O)c2cccc(Cl)c2)cc1 (centres undefined)", "quantity.unit": "µM", "EC50": 2.7}
{"molecule": "CC(C)CCCc1ccc2cc(C(=O)O)ccc2c1", "quantity.unit": "µM", "EC50": 37}

Okay, next one:
Looking up CCCc1nc2[nH]c(C)c(NS(=O)(=O)c3ccc(C4CCCCC4)cc3)c(=O)n2n1 , I found its EC50 recorded as 6.6

###

# measurement.target: Glutamate receptor ionotropic, NMDA 2C (Homo sapiens, UniProt Q05586+Q14957)
# test.protocol: Negative allosteric modulation of GluN2C receptor (unknown origin) expressed in xenopus laevis oocytes assessed as reduction in glycine-induced channel current by two electrode voltage clamp method
# Format: cell-based
This listing pairs compounds with measured IC50.
Could you give me the number in µM? Just the number is fine.

Solved cases (3 shown):
{"compound": "CC(=O)[C@H]1CC[C@H]2[C@@H]3CC=C4C[C@@H](OS(=O)(=O)O)CC[C@]4(C)[C@H]3CC[C@]12C", "measurement.target": "Glutamate receptor ionotropic, NMDA 2C (Homo sapiens, UniProt Q05586+Q14957)", "quantity.unit": "µM", "IC50": 112}
{"compound": "O=C(O)c1ccc2cc(I)c3ccccc3c2c1", "measurement.target": "Glutamate receptor ionotropic, NMDA 2C (Homo sapiens, UniProt Q05586+Q14957)", "quantity.unit": "µM", "IC50": 50}
{"compound": "O=C(O)c1cc2cc(-c3ccccc3)ccc2c(Br)c1O", "measurement.target": "Glutamate receptor ionotropic, NMDA 2C (Homo sapiens, UniProt Q05586+Q14957)", "quantity.unit": "µM", "IC50": 2}

For record COc1ccc2nc(/C=C/c3cccc([N+](=O)[O-])c3)n(-c3ccc(C(=O)O)cc3)c(=O)c2c1 the listed IC50 is 7.1

Lookup result for O=C(O)c1cc2cccc(O)c2cc1O ; measured IC50: 15

Record CCN(CC)C(=S)Oc1ccc(C(=O)Nc2cccc3ccccc23)cc1 , field IC50: 2.6

Reported IC50 for CC(=O)[C@H]1CC[C@H]2[C@@H]3CC[C@@H]4C[C@H](OS(=O)(=O)O)CC[C@]4(C)[C@H]3CC[C@]12C was 12

// recorded IC50 for Cc1ccc2[nH]c(=O)c(C3=NN(C(=O)CCC(=O)O)C(c4ccc(Br)cc4)C3)c(-c3ccccc3)c2c1 (centres undefined) : 7

Note to self: IC50 recorded for O=C(O)CCC(=O)N1N=C(c2c(-c3ccccc3)c3cc(Br)ccc3[nH]c2=O)CC1c1ccc(Br)cc1 (centres undefined) was 5.4
